# key: entry, value: LD50
Test: Acute toxicity, intravenous (once), ddY mice
Type: in vivo
Conditions: mouse, in vivo, iv, formulated per Preparation Example

[
  {
    "MOLECULE": "CO[C@H]1[C@@H](O)[C@@H](C)O[C@H](O[C@H]2[C@H](Oc3cccc4c(OC(=O)[C@@H](NC(=O)CNC(=O)CN)C(C)C)c5c(=O)oc6ccc(C)c7c(=O)oc(c34)c5c67)O[C@H](C)[C@@H]3OC(c4ccccc4)O[C@@H]32)[C@@H]1O (stereo partly shown) [compound 36]",
    "LD50": "≥ 40 mg/kg"
  },
  {
    "MOLECULE": "COC1C(O)C(C)OC(OC2C(Oc3cccc4c(OC(=O)CCNC=O)c5c(=O)oc6ccc(C)c7c(=O)oc(c34)c5c67)OC(C)C3OC(c4cccc(Br)c4)OC32)C1O (stereo not shown) [Compound No. 54]",
    "LD50": "≥ 80 mg/kg"
  },
  {
    "MOLECULE": "COC1C(O)C(C)OC(OC2C(Oc3cccc4c(OC(=O)C(CC[S+](C)[O-])NC(=O)OCc5ccccc5)c5c(=O)oc6ccc(C)c7c(=O)oc(c34)c5c67)OC(C)C3OC(c4ccccc4)OC32)C1O (stereo not shown) [Compound No. 79]",
    "LD50": "≥ 40 mg/kg"
  },
  {
    "MOLECULE": "COC1C(O)C(C)OC(OC2C(Oc3cccc4c(OC(=O)CN(C)C(=O)C(F)(F)F)c5c(=O)oc6ccc(C)c7c(=O)oc(c34)c5c67)OC(C)C3OC(c4ccccc4)OC32)C1O (stereo not shown) [Compound No. 25]",
    "LD50": "≥ 40 mg/kg"
  },
  {
    "MOLECULE": "COC1C(O)C(C)OC(OC2C(Oc3cccc4c(OC(=O)c5ccccc5)c5c(=O)oc6ccc(C)c7c(=O)oc(c34)c5c67)OC(C)C3OC(C)(C)OC32)C1O (stereo not shown) [compound 242]",
    "LD50": "≥ 40 mg/kg"
  },
  {
    "MOLECULE": "CO[C@H]1[C@@H](O)[C@@H](C)O[C@H](O[C@H]2[C@H](Oc3cccc4c(OC(=O)c5ccc(Cl)cc5)c5c(=O)oc6ccc(C)c7c(=O)oc(c34)c5c67)O[C@H](C)[C@@H]3OC(c4ccccc4)O[C@@H]32)[C@@H]1O (stereo partly shown) [compound 194]",
    "LD50": "≥ 40 mg/kg"
  },
  {
    "MOLECULE": "COC1C(O)C(C)OC(OC2C(Oc3cccc4c(OC(=O)C(C)CNC(=O)OCc5ccccc5)c5c(=O)oc6ccc(C)c7c(=O)oc(c34)c5c67)OC(C)C3OC(c4ccccc4)OC32)C1O (stereo not shown) [Compound No. 69]",
    "LD50": "≥ 40 mg/kg"
  },
  {
    "MOLECULE": "COC1C(O)C(C)OC(OC2C(Oc3cccc4c(OC(=O)C5CCCCC5NC(=O)C(F)(F)F)c5c(=O)oc6ccc(C)c7c(=O)oc(c34)c5c67)OC(C)C3OC(c4ccccc4)OC32)C1O (single isomer, unassigned) [Compound No. 118]",
    "LD50": "≥ 40 mg/kg"
  },
  {
    "MOLECULE": "COC1C(O)C(C)OC(OC2C(Oc3cccc4c(OC(=O)CNC(=O)c5ccccc5)c5c(=O)oc6ccc(C)c7c(=O)oc(c34)c5c67)OC(C)C3OC(C)(C)OC32)C1O (stereo not shown) [compound 88]",
    "LD50": "≥ 100 mg/kg"
  },
  {
    "MOLECULE": "COC1C(O)C(C)OC(OC2C(Oc3cccc4c(OC(=O)C(Cc5ccccc5)NC(=O)OCc5ccccc5)c5c(=O)oc6ccc(C)c7c(=O)oc(c34)c5c67)OC(C)C3OC(c4ccccc4)OC32)C1O (stereo not shown) [compound 122]",
    "LD50": "≥ 40 mg/kg"
  },
  {
    "MOLECULE": "COC1C(O)C(C)OC(OC2C(Oc3cccc4c(OC(=O)CC(C)CC(C)(C)C)c5c(=O)oc6ccc(C)c7c(=O)oc(c34)c5c67)OC(C)C3OC(C)(C)OC32)C1O (stereo not shown) [compound 237]",
    "LD50": "≥ 60 mg/kg"
  },
  {
    "MOLECULE": "COC1C(O)C(C)OC(OC2C(Oc3cccc4c(OC(=O)CCCCCN)c5c(=O)oc6ccc(C)c7c(=O)oc(c34)c5c67)OC(C)C3OC(C)(C)OC32)C1O (stereo not shown) [compound 59]",
    "LD50": "≥ 100 mg/kg"
  },
  {
    "MOLECULE": "COC1C(O)C(C)OC(OC2C(Oc3cccc4c(OC(=O)C5CC5)c5c(=O)oc6ccc(C)c7c(=O)oc(c34)c5c67)OC(C)C3OC(c4ccccc4)OC32)C1O (stereo not shown) [compound 232]",
    "LD50": "≥ 40 mg/kg"
  },
  {
    "MOLECULE": "COC1C(O)C(C)OC(OC2C(Oc3cccc4c(OC(=O)CCNC(=O)C(F)(F)F)c5c(=O)oc6ccc(C)c7c(=O)oc(c34)c5c67)OC(C)C3OC(c4cccc(Br)c4)OC32)C1O (stereo not shown) [Compound No. 31]",
    "LD50": "≥ 80 mg/kg"
  },
  {
    "MOLECULE": "COC1C(O)C(C)OC(OC2C(Oc3cccc4c(OC(=O)CCNC=O)c5c(=O)oc6ccc(C)c7c(=O)oc(c34)c5c67)OC(C)C3OC(c4cccc([N+](=O)[O-])c4)OC32)C1O (stereo not shown) [compound 120]",
    "LD50": "≥ 40 mg/kg"
  },
  {
    "MOLECULE": "COC1C(O)C(C)OC(OC2C(Oc3cccc4c(OC(=O)CCCCCBr)c5c(=O)oc6ccc(C)c7c(=O)oc(c34)c5c67)OC(C)C3OC(C)(C)OC32)C1O (stereo not shown) [compound 235]",
    "LD50": "≥ 60 mg/kg"
  },
  {
    "MOLECULE": "CCOCCC(=O)Oc1c2cccc(OC3OC(C)C4OC(C)(C)OC4C3OC3OC(C)C(O)C(OC)C3O)c2c2oc(=O)c3c(C)ccc4oc(=O)c1c2c43 (stereo not shown) [Compound No. 176]",
    "LD50": "≥ 80 mg/kg"
  },
  {
    "MOLECULE": "COC1C(O)C(C)OC(OC2C(Oc3cccc4c(OC(=O)c5cccc(N(C)C)c5)c5c(=O)oc6ccc(C)c7c(=O)oc(c34)c5c67)OC(C)C3OC(c4cccc(F)c4)OC32)C1O (stereo not shown) [Compound No. 158]",
    "LD50": "≥ 80 mg/kg"
  },
  {
    "MOLECULE": "COC1C(O)C(C)OC(OC2C(Oc3cccc4c(OC(=O)CSc5ccccc5)c5c(=O)oc6ccc(C)c7c(=O)oc(c34)c5c67)OC(C)C3OC(C)(C)OC32)C1O (stereo not shown) [Compound No. 174]",
    "LD50": "≥ 80 mg/kg"
  }
]
